Could you please report measured reverse-splicing fitness for the items listed next?
B1: Azoarcus group I ribozyme (parent)
chain: GUGCCUUGCGCCGGGAAACCACGCAAGGGAUGGUGUCAAAUUCGGCGAAACCUAAGCGCCCGCCCGGGCGUAUGGCAACGCCGAGCCAAGCUUCGGCGCCUGCGCCGAUGAAGGUGUAGAGACUAGACGGCACCCACCUAAGGCAAACGCUAUGGUGAAGGCAUAGUCCAGGGAGUGGCGAAAGUCACACAAACCGG

Variants of: B1
protocol details: reverse-splicing fitness (ratio to wild type); higher = more active; in vitro selection; Mg2+ level not given
Output: the number by itself.

Q: Which value of reverse-splicing fitness has been reported for C82U A111U A120U A145G C150G C169G U176A in the records?
Ans: 0.00749

Q: Which value of reverse-splicing fitness has been reported for C82U A111U A120C A145G C169G U176C in the records?
Ans: 0.0209

Q: Which value of reverse-splicing fitness has been reported for A111G A120C A145G C150U U176A in the records?
Ans: 0.287

Q: Which value of reverse-splicing fitness has been reported for C82A A120G C150U C169U in the records?
Ans: 0.0111

Q: Which value of reverse-splicing fitness has been reported for A145C C150U U176C in the records?
Ans: 0.596

Q: Which value of reverse-splicing fitness has been reported for C82G A111C A120C A145C C150A U176A in the records?
Ans: 0.00989

Q: Which value of reverse-splicing fitness has been reported for C82U A111C A120G A145U C150A C169U U176A in the records?
Ans: 0.0157

Q: Which value of reverse-splicing fitness has been reported for A111G A145C C150U C169U U176A in the records?
Ans: 0.0217

Q: Which value of reverse-splicing fitness has been reported for A111U A120C U176A in the records?
Ans: 0.277

Q: Which value of reverse-splicing fitness has been reported for C82U A111C A120G A145G C150U C169A U176G in the records?
Ans: 0.00542

Q: Which value of reverse-splicing fitness has been reported for C82G A111G A120C C150U C169G in the records?
Ans: 0.00909

Q: Which value of reverse-splicing fitness has been reported for C82U A111C A120G A145U in the records?
Ans: 0.0159

Q: Which value of reverse-splicing fitness has been reported for A111G A120U A145G C169A U176A in the records?
Ans: 0.00347

Q: Which value of reverse-splicing fitness has been reported for A111U A120U C150U C169G U176C in the records?
Ans: 0.00679

Q: Which value of reverse-splicing fitness has been reported for C82A A120C A145C U176A in the records?
Ans: 0.0359

Q: Which value of reverse-splicing fitness has been reported for A111U A145U C150U in the records?
Ans: 0.88

Q: Which value of reverse-splicing fitness has been reported for C82U A111C A120C A145G C150U in the records?
Ans: 0.0229

Q: Which value of reverse-splicing fitness has been reported for C82A A111U A120G C169G U176C in the records?
Ans: 0.0234

Q: Which value of reverse-splicing fitness has been reported for C82U A120U C150U C169A U176A in the records?
Ans: 0.00329

Q: Which value of reverse-splicing fitness has been reported for C82G A111U A145C C150U C169A in the records?
Ans: 0.00882

Q: Which value of reverse-splicing fitness has been reported for C82U A120C A145U C150U C169U U176C in the records?
Ans: 0.0144

Q: Which value of reverse-splicing fitness has been reported for C82A A111C A120C A145C C150G C169A U176A in the records?
Ans: 0.00949

Q: Which value of reverse-splicing fitness has been reported for C82U A111C C150G C169G in the records?
Ans: 0.00661

Q: Which value of reverse-splicing fitness has been reported for C82A A111G A120C A145U C169U U176G in the records?
Ans: 0.00505

Q: Which value of reverse-splicing fitness has been reported for A120G A145C C150A C169U U176G in the records?
Ans: 0.00621

Q: Which value of reverse-splicing fitness has been reported for A111U A120C A145C C169U U176G in the records?
Ans: 0.00517

Q: Which value of reverse-splicing fitness has been reported for C82G A120U A145G C150U C169G U176C in the records?
Ans: 0.00419

Q: Which value of reverse-splicing fitness has been reported for C82G A120G A145C U176A in the records?
Ans: 0.0133

Q: Which value of reverse-splicing fitness has been reported for C82G A111C A120G A145G C150U C169A U176C in the records?
Ans: 0.0147

Q: Which value of reverse-splicing fitness has been reported for C82G A111C A120C A145C C169G U176G in the records?
Ans: 0.0061

Q: Which value of reverse-splicing fitness has been reported for A120C A145C C150G C169G in the records?
Ans: 0.00786

Q: Which value of reverse-splicing fitness has been reported for C150A C169A U176G in the records?
Ans: 0.00665

Q: Which value of reverse-splicing fitness has been reported for C82G A111C A120U A145G C150A C169A U176C in the records?
Ans: 0.00453

Q: Which value of reverse-splicing fitness has been reported for C82A A120C A145G C150U C169A U176C in the records?
Ans: 0.0184

Q: Which value of reverse-splicing fitness has been reported for C82U A111G A120C A145C C150G in the records?
Ans: 0.00936

Q: Which value of reverse-splicing fitness has been reported for C82U A120G A145C C169G U176G in the records?
Ans: 0.00391

Q: Which value of reverse-splicing fitness has been reported for C82G A111G A120G A145U C150U in the records?
Ans: 0.0155

Q: Which value of reverse-splicing fitness has been reported for C82G A120G A145U C150U U176A in the records?
Ans: 0.0121

Q: Which value of reverse-splicing fitness has been reported for A111C A120G A145G C169A U176C in the records?
Ans: 0.0401

Q: Which value of reverse-splicing fitness has been reported for C82G A111U A120U C150A C169G U176G in the records?
Ans: 0.00223

Q: Which value of reverse-splicing fitness has been reported for C82U A111U A120U A145G C150A in the records?
Ans: 0.00852

Q: Which value of reverse-splicing fitness has been reported for C82G A111G A120C A145C in the records?
Ans: 0.0798

Q: Which value of reverse-splicing fitness has been reported for C82G A111G A120U C150U C169A U176G in the records?
Ans: 0.00204

Q: Which value of reverse-splicing fitness has been reported for A111C A120C A145U C150G C169U U176C in the records?
Ans: 0.0173

Q: Which value of reverse-splicing fitness has been reported for A111C A120U C150G U176C in the records?
Ans: 0.0217

Q: Which value of reverse-splicing fitness has been reported for C82G A111G A120U A145G C150G U176G in the records?
Ans: 0.00375

Q: Which value of reverse-splicing fitness has been reported for C82G A120C A145C C150G C169G U176G in the records?
Ans: 0.00536

Q: Which value of reverse-splicing fitness has been reported for C82A A111G A120G A145G C150U C169A U176G in the records?
Ans: 0.0063

Q: Which value of reverse-splicing fitness has been reported for C150A C169U U176G in the records?
Ans: 0.00737

Q: Which value of reverse-splicing fitness has been reported for C82G A111G A120U C150A U176A in the records?
Ans: 0.0074

Q: Which value of reverse-splicing fitness has been reported for C82U A111U A120C A145U C169G U176C in the records?
Ans: 0.00955

Q: Which value of reverse-splicing fitness has been reported for C82A A111U A120U A145C C150U C169U U176A in the records?
Ans: 0.00291

Q: Which value of reverse-splicing fitness has been reported for C82G A120U in the records?
Ans: 0.251

Q: Which value of reverse-splicing fitness has been reported for C82A A111G A120U A145C U176A in the records?
Ans: 0.00841

Q: Which value of reverse-splicing fitness has been reported for C82G A111G A145G C150G C169G U176G in the records?
Ans: 0.0064

Q: Which value of reverse-splicing fitness has been reported for C82U A120G A145G C150G in the records?
Ans: 0.00813

Q: Which value of reverse-splicing fitness has been reported for C82U A120C A145C C150A C169A in the records?
Ans: 0.00632

Q: Which value of reverse-splicing fitness has been reported for C82G A111U A120U A145C C169A U176A in the records?
Ans: 0.00191

Q: Which value of reverse-splicing fitness has been reported for A111C A120G A145C C150G U176G in the records?
Ans: 0.00301

Q: Which value of reverse-splicing fitness has been reported for C82A A111G A145U C150G C169A U176C in the records?
Ans: 0.0104

Q: Which value of reverse-splicing fitness has been reported for C82G A111G A120C A145U C150A C169U U176A in the records?
Ans: 0.0146

Q: Which value of reverse-splicing fitness has been reported for C82A A111C A145U C150U C169U U176C in the records?
Ans: 0.0144

Q: Which value of reverse-splicing fitness has been reported for C82A C150U C169A U176A in the records?
Ans: 0.0169

Q: Which value of reverse-splicing fitness has been reported for C82G A120U A145G C169G in the records?
Ans: 0.00688

Q: Which value of reverse-splicing fitness has been reported for C82G A111G A120C C150A C169A U176A in the records?
Ans: 0.0223

Q: Which value of reverse-splicing fitness has been reported for C82G A111G A120C A145C C150A U176G in the records?
Ans: 0.00662

Q: Which value of reverse-splicing fitness has been reported for C82U A120U A145U C150U U176A in the records?
Ans: 0.0284

Q: Which value of reverse-splicing fitness has been reported for C82G A111G A120C C169U in the records?
Ans: 0.0179

Q: Which value of reverse-splicing fitness has been reported for C82U A111U A120U A145C U176C in the records?
Ans: 0.00756

Q: Which value of reverse-splicing fitness has been reported for A111U A120U A145C U176A in the records?
Ans: 0.194

Q: Which value of reverse-splicing fitness has been reported for C82U A111G A120G A145G C150U U176C in the records?
Ans: 0.0166

Q: Which value of reverse-splicing fitness has been reported for C82U A111C A120U C150A C169A U176G in the records?
Ans: 0.00303

Q: Which value of reverse-splicing fitness has been reported for C82G A111G A120U A145C in the records?
Ans: 0.0668

Q: Which value of reverse-splicing fitness has been reported for C82A A120U A145U C169G in the records?
Ans: 0.00509

Q: Which value of reverse-splicing fitness has been reported for C82U A145C U176A in the records?
Ans: 0.38

Q: Which value of reverse-splicing fitness has been reported for A111C A145U C169G U176G in the records?
Ans: 0.00719

Q: Which value of reverse-splicing fitness has been reported for C82A A111C A120G A145G C169A U176G in the records?
Ans: 0.00509

Q: Which value of reverse-splicing fitness has been reported for C82A A120G A145U C150U U176C in the records?
Ans: 0.0158

Q: Which value of reverse-splicing fitness has been reported for C82G A111G A120U A145U in the records?
Ans: 0.0713

Q: Which value of reverse-splicing fitness has been reported for C82A A111G A120C A145C C150U C169U in the records?
Ans: 0.0104

Q: Which value of reverse-splicing fitness has been reported for A111G A120U A145C C150A C169G U176C in the records?
Ans: 0.00181

Q: Which value of reverse-splicing fitness has been reported for C82G A111G A145C C150U C169A in the records?
Ans: 0.00783

Q: Which value of reverse-splicing fitness has been reported for C82A A111C A120G A145U C150A C169G U176A in the records?
Ans: 0.0138

Q: Which value of reverse-splicing fitness has been reported for A111C A120G A145G C169G in the records?
Ans: 0.227

Q: Which value of reverse-splicing fitness has been reported for C82A A120G A145C C150A C169A U176A in the records?
Ans: 0.0126

Q: Which value of reverse-splicing fitness has been reported for C82A A111C A120C A145C C150G C169U U176A in the records?
Ans: 0.00758

Q: Which value of reverse-splicing fitness has been reported for C82U A145C C169G U176G in the records?
Ans: 0.00428

Q: Which value of reverse-splicing fitness has been reported for C82U A111G A145G C169U U176C in the records?
Ans: 0.0129

Q: Which value of reverse-splicing fitness has been reported for C82A A111C A120C A145G C150G C169G in the records?
Ans: 0.00793

Q: Which value of reverse-splicing fitness has been reported for C82A A111C A145G C150A U176G in the records?
Ans: 0.00922

Q: Which value of reverse-splicing fitness has been reported for A111U A120C A145C C169A U176C in the records?
Ans: 0.00538
